Recorded Kd, one value per entry.
Biological target: YES (Homo sapiens, UniProt P07947)
Construct: the DNA-tagged SH2 domain concentrations used in this study were <0.1 nM; made in house; host or cells: HEK293 (transient transfection; unpurified cell extract)
Sequence (P07947 158-255 limits assumed): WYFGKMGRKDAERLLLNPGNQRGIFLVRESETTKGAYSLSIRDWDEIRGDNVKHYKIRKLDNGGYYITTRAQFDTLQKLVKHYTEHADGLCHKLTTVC
Test: biochemical
Assay type: binding
Conditions: dose-response; read-out: KD
Non-standard residues stand in square brackets, D forms with d. Residues, ends and D or L forms follow the SMILES beside them. pY = N[C@@H](Cc1ccc(OP(=O)(O)O)cc1)C(=O)O
Enter your answer as a number in µM; do not include the unit.

{"columns": ["Compound", "Readout units", "Quantitative readout"],
 "data": [
  ["CC[C@H](C)[C@H](NC(=O)[C@@H]1CCCN1C(=O)[C@@H](NC(=O)[C@H](CCC(=O)O)NC(=O)[C@H](CCC(=O)O)NC(=O)[C@H](Cc1ccc(OP(=O)(O)O)cc1)NC(=O)[C@H](CCC(N)=O)NC(=O)[C@@H]1CCCN1C(=O)[C@H](CCC(=O)O)NC(C)=O)[C@@H](C)CC)C(=O)N[C@@H](Cc1ccc(O)cc1)C(=O)N[C@@H](CC(C)C)C(=O)N[C@@H](CCCCN)C(N)=O (Ac-EPQ[pY]EEIPIYLK-NH2)", "µM", 0.234]
]}

Field: next compound
Task: Request - read-out Kd | tested on YES (Homo sapiens, UniProt P07947) | compound C/C(=C\C(=O)N[C@H](C(=O)N1CCC[C@H]1C(=O)N(c1ccccc1)c1ccc(I)cc1)C(C)(C)C)c1ccc(OP(=O)(O)O)cc1
Output: 9.2
